# measurementDescription: Drug level in mouse cerebral cortex at 50 mg/kg, po administered for 5 days after 5 hrs
# Assay type: ADME, organism-based
# Set-up: dose 50 mg/kg, route oral
# conditions: read-out: Drug uptake
reportedMetric: concentration at 5 h

[[record]]
smilesinput = "O=C(Nc1ccc(Br)cc1)c1cccc(S(=O)(=O)Nc2ccc(Br)cc2)c1"
reportedmetric = "concentration at 5 h"
recordedmeasurement = "25 µM"


###

# measurementDescription: Plasma half life in po dosed mouse
# Assay type: ADME, organism-based
reportedMetric: half-life (h)

[[record]]
smilesinput = "O=C(Nc1ccc(Br)cc1)c1cccc(S(=O)(=O)Nc2ccc(Br)cc2)c1"
recordedmeasurement = 1.5


###

# Tested on: Brain
# measurementDescription: Drug concentration in mouse brain at 10 mg/kg, po after 16 hrs
# Assay type: ADME, organism-based
# Parameters: dose 10 mg/kg, route oral
# conditions: in vivo
reportedMetric: Drug uptake

[[record]]
smilesinput = "O=C(Nc1ccc(Br)cc1)c1cccc(S(=O)(=O)Nc2ccc(Br)cc2)c1"
experimentaltarget = "Brain"
reportedmetric = "Drug uptake"
recordedmeasurement = "< 15 pmol/g"


###

# measurementDescription: Half life in po dosed mouse brain
# Format: ADME, organism-based
reportedMetric: half-life

[[record]]
smilesinput = "O=C(Nc1ccc(Br)cc1)c1cccc(S(=O)(=O)Nc2ccc(Br)cc2)c1"
reportedmetric = "half-life"
recordedmeasurement = "1.6 h"


###

# experimentalTarget: Adenosine receptor A3 (Homo sapiens, UniProt P0DMS8)
# Sequence (P0DMS8 whole entry): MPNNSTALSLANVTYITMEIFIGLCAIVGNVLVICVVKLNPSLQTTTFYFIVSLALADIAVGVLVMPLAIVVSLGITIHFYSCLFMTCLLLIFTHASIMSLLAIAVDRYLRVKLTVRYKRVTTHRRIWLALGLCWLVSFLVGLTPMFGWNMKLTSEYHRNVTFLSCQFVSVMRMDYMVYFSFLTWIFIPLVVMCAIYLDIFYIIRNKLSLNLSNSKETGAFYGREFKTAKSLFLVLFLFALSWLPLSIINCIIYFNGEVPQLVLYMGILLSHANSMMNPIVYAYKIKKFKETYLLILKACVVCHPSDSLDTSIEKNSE
# measurementDescription: Inhibition of adenosine A3 receptor
reportedMetric: IC50 (µM)

[[record]]
smilesinput = "O=C(Nc1ccc(Br)cc1)c1cccc(S(=O)(=O)Nc2ccc(Br)cc2)c1"
experimentaltarget = "Adenosine receptor A3 (Homo sapiens, UniProt P0DMS8)"
recordedmeasurement = 5.76


###

# experimentalTarget: UniProt Q01959
# Sequence (Q01959 whole entry): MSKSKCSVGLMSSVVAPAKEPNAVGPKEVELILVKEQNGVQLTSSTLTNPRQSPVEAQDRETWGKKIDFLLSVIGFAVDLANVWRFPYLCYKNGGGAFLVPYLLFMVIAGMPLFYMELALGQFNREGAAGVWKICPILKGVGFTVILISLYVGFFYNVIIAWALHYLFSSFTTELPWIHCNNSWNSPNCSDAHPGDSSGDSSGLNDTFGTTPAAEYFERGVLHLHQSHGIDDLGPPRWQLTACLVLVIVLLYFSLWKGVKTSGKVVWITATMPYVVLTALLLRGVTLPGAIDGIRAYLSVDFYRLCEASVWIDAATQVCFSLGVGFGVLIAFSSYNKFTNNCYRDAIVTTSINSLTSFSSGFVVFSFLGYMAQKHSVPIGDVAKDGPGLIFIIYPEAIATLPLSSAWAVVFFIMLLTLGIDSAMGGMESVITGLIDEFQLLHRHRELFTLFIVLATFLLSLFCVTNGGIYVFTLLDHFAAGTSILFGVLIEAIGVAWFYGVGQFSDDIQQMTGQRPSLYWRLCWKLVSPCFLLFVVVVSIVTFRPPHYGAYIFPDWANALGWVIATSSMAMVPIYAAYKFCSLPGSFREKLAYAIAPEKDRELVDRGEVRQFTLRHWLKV
pIC50: −log10 of the molar value.
reportedMetric: pIC50

[[record]]
smilesinput = "O=C(Nc1ccc(Br)cc1)c1cccc(S(=O)(=O)Nc2ccc(Br)cc2)c1"
reportedmetric = "pIC50"
recordedmeasurement = 5.77


###

# measurementDescription: Inhibition of opioid receptor
reportedMetric: IC50 (nM)

[[record]]
smilesinput = "O=C(Nc1ccc(Br)cc1)c1cccc(S(=O)(=O)Nc2ccc(Br)cc2)c1"
reportedmetric = "IC50"
unitspec = "nM"
recordedmeasurement = 2790

